Target: P-gp (ABCB1) ATPase (Homo sapiens, UniProt P08183)
Sequence (P08183 whole entry): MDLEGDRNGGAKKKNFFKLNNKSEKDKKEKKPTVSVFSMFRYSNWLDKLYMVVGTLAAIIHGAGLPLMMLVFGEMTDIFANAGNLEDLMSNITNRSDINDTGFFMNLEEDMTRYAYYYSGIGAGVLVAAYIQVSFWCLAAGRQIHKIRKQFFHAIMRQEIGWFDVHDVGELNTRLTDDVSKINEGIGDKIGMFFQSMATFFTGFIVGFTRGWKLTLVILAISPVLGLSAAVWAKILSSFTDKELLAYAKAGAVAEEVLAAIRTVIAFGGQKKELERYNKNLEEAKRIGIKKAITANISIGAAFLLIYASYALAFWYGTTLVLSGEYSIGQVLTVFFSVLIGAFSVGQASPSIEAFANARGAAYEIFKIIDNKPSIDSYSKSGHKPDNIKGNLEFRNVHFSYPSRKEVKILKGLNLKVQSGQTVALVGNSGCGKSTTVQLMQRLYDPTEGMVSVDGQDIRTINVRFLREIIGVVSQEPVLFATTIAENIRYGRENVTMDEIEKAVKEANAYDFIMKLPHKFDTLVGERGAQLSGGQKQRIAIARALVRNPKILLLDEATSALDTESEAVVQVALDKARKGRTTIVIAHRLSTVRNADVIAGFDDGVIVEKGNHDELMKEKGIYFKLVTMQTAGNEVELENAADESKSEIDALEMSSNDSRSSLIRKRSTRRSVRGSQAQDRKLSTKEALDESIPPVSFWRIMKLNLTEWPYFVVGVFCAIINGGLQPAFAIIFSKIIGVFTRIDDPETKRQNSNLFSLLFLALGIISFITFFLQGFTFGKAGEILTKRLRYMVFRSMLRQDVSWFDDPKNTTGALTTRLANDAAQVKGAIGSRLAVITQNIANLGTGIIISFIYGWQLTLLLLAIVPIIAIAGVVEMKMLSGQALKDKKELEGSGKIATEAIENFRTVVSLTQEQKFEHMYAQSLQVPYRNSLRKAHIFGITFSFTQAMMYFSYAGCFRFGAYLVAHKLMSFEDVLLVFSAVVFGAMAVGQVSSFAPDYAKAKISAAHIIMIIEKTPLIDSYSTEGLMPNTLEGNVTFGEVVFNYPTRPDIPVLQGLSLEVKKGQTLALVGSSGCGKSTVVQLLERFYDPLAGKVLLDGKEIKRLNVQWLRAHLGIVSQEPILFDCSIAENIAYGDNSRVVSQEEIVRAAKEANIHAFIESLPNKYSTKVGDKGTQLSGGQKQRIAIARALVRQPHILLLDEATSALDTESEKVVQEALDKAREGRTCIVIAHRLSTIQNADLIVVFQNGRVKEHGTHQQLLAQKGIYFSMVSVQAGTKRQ
Assay: Stimulation of Pgp ATPase activity at 200 uM by Pgp-Glo assay system relative to control
Details: read-out: Fold change
Counter-ions that a name gives are not always drawn.
MEASURED_QUANTITY: fold induction at 200 µM
Give the figure by itself; no unit, no explanation.

Below are worked cases with known answers.
>>> df
                                   compound                           target_of_assay         measured_quantity  endpoint_result
0  CCOC(=O)C1(c2ccccc2)CCN(C)CC1 [PETHIDINE OXALATE]  P-gp (ABCB1) ATPase (Homo sapiens, UniProt P08183)  fold induction at 200 µM             1.78
1  CCOC(=O)C1(c2cccc(O)c2)CCN(C)CC1 [BEMIDONE]  P-gp (ABCB1) ATPase (Homo sapiens, UniProt P08183)  fold induction at 200 µM             2.64
2              CCC(=O)C1(c2ccccc2)CCN(C)CC1  P-gp (ABCB1) ATPase (Homo sapiens, UniProt P08183)  fold induction at 200 µM             1.37

// fold induction at 200 µM value for CCC(=O)C1(c2cccc(O)c2)CCN(C)CC1 [KETOBEMIDONE OXALATE] : 4.89
